All values here come from paper PMC10786891.

# SYSTEM_UNDER_TEST: T1, EsCas13d, nuclease-dead (Eubacterium siraeum, UniProt B0MS50, R295A;H300A;R849A;H854A)
# T1 sequence: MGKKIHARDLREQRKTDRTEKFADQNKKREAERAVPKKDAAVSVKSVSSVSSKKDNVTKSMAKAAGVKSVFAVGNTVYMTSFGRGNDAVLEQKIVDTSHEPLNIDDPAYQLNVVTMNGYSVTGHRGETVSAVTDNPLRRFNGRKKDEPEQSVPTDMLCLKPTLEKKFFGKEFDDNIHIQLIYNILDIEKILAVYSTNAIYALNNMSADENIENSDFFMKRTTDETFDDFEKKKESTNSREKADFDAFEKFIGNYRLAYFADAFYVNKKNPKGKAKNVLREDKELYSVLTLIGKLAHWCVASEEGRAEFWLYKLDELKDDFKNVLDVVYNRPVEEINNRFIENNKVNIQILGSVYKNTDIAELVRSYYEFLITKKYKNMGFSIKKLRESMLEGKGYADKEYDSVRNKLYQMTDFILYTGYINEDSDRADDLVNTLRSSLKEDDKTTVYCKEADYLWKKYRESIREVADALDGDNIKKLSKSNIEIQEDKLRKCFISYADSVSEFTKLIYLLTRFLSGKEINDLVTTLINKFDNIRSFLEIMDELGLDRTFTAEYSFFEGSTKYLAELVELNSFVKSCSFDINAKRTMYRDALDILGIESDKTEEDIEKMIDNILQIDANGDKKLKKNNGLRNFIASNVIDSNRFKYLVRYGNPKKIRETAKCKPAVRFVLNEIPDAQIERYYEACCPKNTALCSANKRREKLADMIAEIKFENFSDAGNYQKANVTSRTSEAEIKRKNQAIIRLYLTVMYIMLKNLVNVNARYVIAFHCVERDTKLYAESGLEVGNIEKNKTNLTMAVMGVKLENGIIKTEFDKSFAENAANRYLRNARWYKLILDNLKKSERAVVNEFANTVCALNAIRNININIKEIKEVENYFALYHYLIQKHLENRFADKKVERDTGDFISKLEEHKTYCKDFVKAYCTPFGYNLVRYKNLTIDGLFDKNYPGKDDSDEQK
# MEASUREMENT_PROTOCOL: crRNA (strand 1, pre-loaded); Mg2+; 40 mM Tris-HCl pH 7.5, 150 mM NaCl, 6 mM MgCl2, 1 mM DTT, 0.1% Tween-20, 0.2 mg/ml BSA; 25 C; 10 min per concentration, then washed
# STUDY_CONDITIONS: tags: His6-TwinStrep-SUMO cleaved; N-terminal SNAP kept (SNAP-Surface 488); label: 3' end held by stalled T7 RNA polymerase
PROPERTY_LABEL: pKd
pKd here is simply -log10 of the concentration when that concentration is written in mol/L.

For the binder target 1 MT 5'PFS GGC 3'PFS ACG (mixed) RNA 1: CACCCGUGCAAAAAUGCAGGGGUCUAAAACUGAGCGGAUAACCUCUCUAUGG RNA 2: GGGAAUGGAUCCACAUCUACGAAUUCGGCCCAUAGAGAGGUUAUCCGCUCAACGAGAUCGGAAGAGCACACGU , give its reported pKd.
7.87

For the binder target 3 insG 3' of 1 (mixed) RNA 1: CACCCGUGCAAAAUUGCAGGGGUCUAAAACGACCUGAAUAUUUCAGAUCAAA RNA 2: GGGAAUGGAUCCACAUCUACGAAUUCGUUUUUGAUCUGAAAUAUUCAGGUCGUGCAGAUCGGAAGAGCACACGU , give its reported pKd.
7.35

For the binder target 1 G17U,C21A (mixed) RNA 1: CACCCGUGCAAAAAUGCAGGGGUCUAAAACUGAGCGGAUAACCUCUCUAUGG RNA 2: GGGAAUGGAUCCACAUCUACGAAUUCGUACAAUAUAGAGGUUAUCCGCUCACCGAGAUCGGAAGAGCACACGU , give its reported pKd.
7.40

For the binder target 1 insC 3' of 15,insC 3' of 8 (mixed) RNA 1: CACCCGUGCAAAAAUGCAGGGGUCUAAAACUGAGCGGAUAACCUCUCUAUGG RNA 2: GGGAAUGGAUCCACAUCUACGAAUUCGUACCAUAGAGCAGGUUAUCCCGCUCACCGAGAUCGGAAGAGCACACGU , give its reported pKd.
7.58
